target: Luciferin 4-monooxygenase (Photinus pyralis); experiment: Biochemical firefly luciferase enzyme assay for NPC (AID 624030); note: nearly all actives have a fitted effect of over 70% in size; details: purified P. pyralis luciferase, luminescence, 5 min; series mostly up to 58.6 µM
Inconclusive results are not listed. Active and inactive are the calls of the source. Calls come from the whole dose curve; as a rule, active = well fitted inhibition curve with a large enough effect; inconclusive = small, poorly fitted or top-dose-only effect; inactive = flat fitted curve, though single readings scatter.
Hello, when you answer, please use one of the following outcomes: active, inactive

1. C/C(=C\C(=O)OCCCCCCCCC(=O)O)C[C@@H]1OC[C@H](C[C@@H]2O[C@H]2[C@@H](C)[C@H](C)O)[C@@H](O)[C@H]1O: inactive

### Prompt Recorded call for CCSc1ccc2c(c1)N(CCCN1CCN(C)CC1)c1ccccc1S2 ?
### Response inactive

### Prompt Recorded call for Nc1nccs1 ?
### Response inactive

### Prompt Recorded call for CCCCO ?
### Response inactive

### Prompt Recorded call for N[C@H](CC(=O)O)C(=O)O ?
### Response inactive

### Prompt Recorded call for CN=C1C=CC(=C(c2ccc(N(C)C)cc2)c2ccc(N(C)C)cc2)C=C1 ?
### Response active

---

tested on: TAB113; experiment: qHTS profiling for inhibitors of Plasmodium falciparum proliferation (AID 504749); note: nearly all actives have a fitted effect of over 60% in size; details: P. falciparum in erythrocytes, SYBR Green DNA, 72 h; series mostly up to 28.7 µM
Results filed as inconclusive are left out. Calls of active or inactive are those of the source. Calls come from the whole dose curve; as a rule, active = well fitted inhibition curve with a large enough effect; inconclusive = small, poorly fitted or top-dose-only effect; inactive = flat fitted curve, though single readings scatter.
Hello, when you answer, please use one of the following outcomes: active, inactive

### Prompt Recorded call for Nc1ncnc2c1ncn2CCOCP(=O)(O)O ?
### Response inactive

### Prompt Recorded call for CS(=O)(=O)c1ccc([C@@H](O)[C@@H](COC(=O)CN)NC(=O)C(Cl)Cl)cc1 ?
### Response inactive

### Prompt Recorded call for O=C(O)CCC/C=C\C[C@@H]1[C@@H](/C=C/[C@@H](O)COc2cccc(Cl)c2)[C@H](O)C[C@@H]1O ?
### Response inactive

---

Assay: Drug repurposing screens with cells derived from glioblastoma tumor samples (AID 1345199); note: potency is the fitted concentration of half-maximal effect; nearly all actives have a fitted effect of over 40% in size
Details: GBM patient neurospheres viability, ATP luminescence, 48 h; tumour line A
Protocol: CD133+ cells were isolated from GBM patient biopsies and cultured as neurospheres. Neurospheres from four patients were used to screen the NCATS pharmaceutical collection (NPC) library of approved drugs and bioactive compounds. […] The neurospheres were incubated with drugs for 48 hours in 1536-well format, then assayed with an ATP content cell viability assay. […]
Records with an inconclusive call do not appear. The source made the active and inactive calls. Calls come from the whole dose curve; as a rule, active = well fitted inhibition curve with a large enough effect; inconclusive = small, poorly fitted or top-dose-only effect; inactive = flat fitted curve, though single readings scatter.
Value kind: Potency

Check out these entries, answers already filled in.
1) O=C(c1cc2ccccc2o1)N1CCN(Cc2ccccc2)CC1: 11.2 µM (active)
2) CC1(C)[C@@H]2CC[C@@]1(C)[C@H](OC(=O)CSC#N)C2: 35.5 µM (active)
3) COc1ccc2c(=O)c(C)c(-c3ccccc3)oc2c1CN(C)C: 20 µM (active)

The following compounds each have a reported value; give each one's Potency.
1. CC(C)c1nc(N(C)S(C)(=O)=O)nc(-c2ccc(F)cc2)c1/C=C/C(O)CC(O)CC(=O)O (stereo not given)
2. O=C(OC[C@H]1O[C@@H](OC(=O)c2cc(O)c(O)c(OC(=O)c3cc(O)c(O)c(O)c3)c2)[C@H](OC(=O)c2cc(O)c(O)c(OC(=O)c3cc(O)c(O)c(O)c3)c2)[C@@H](OC(=O)c2cc(O)c(O)c(OC(=O)c3cc(O)c(O)c(O)c3)c2)[C@@H]1OC(=O)c1cc(O)c(O)c(OC(=O)c2cc(O)c(O)c(O)c2)c1)c1cc(O)c(O)c(OC(=O)c2cc(O)c(O)c(O)c2)c1
3. Nc1nc(NC2CC2)c2ncn([C@@H]3C=C[C@@H](CO)C3)c2n1
4. CNC(C)CCC=C(C)C (stereo not given)
5. O=C1CCC(c2ccccc2)(C2CCN(Cc3ccccc3)CC2)C(=O)N1 (stereo not given)
6. CCN(CC)CCOCCOC(=O)C(CC)(CC)c1ccccc1

### Response
["3.55 µM (active)", "15.8 µM (active)", "35.5 µM (active)", "11.2 µM (active)", "11.2 µM (active)", "1.41 µM (active)"]

### Prompt What value of Potency has been recorded for this entry: Cn1c(O)c(N=NC(N)=S)c2ccccc21
### Response 31.6 µM (active)
